assay: chemical genetic growth profiling, strain panel (AID 1159580);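 note: tested at 20 µM; growth read once vehicle control cultures reached saturation at 30 °C; 1 = growth at the plate median or of vehicle wells; lower values mean less growth of the strain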; settings: S. cerevisiae deletion strains, growth OD, locus YER015W, strain faa2, stronger effect = lower value
The campaign covered roughly 5,500 compounds. About 2,000 (36%) were called active. About 18% were inconclusive and are not listed. This is one part of the list.
REPORTED_PROPERTY: normalized growth
Lab note: write the figure by itself, no unit.

Here are 6 compounds together with their reported answers.
O=C(O)CN1C(=O)c2cccc3cccc(c23)C1=O	0.998
CN1C(C(=O)Nc2ccccn2)=C(O)c2ccccc2S1(=O)=O	0.961
O=C(C1CCCCC1)N1CC(=O)N2CCc3ccccc3C2C1 (configuration not stated)	1
CC(C)NCC(O)COc1cccc2ccccc12 (configuration not stated)	1.01
Cc1cc(NC(=O)C2=C(O)c3ccccc3S(=O)(=O)N2C)no1	0.98
NC(=O)c1cccc(N)c1	0.983

Any idea what normalized growth was measured for "NC(N)=NS(=O)(=O)c1ccc(N)cc1" ?
0.985

Any idea what normalized growth was measured for "CCN(CC)C(=O)c1cccc(C)c1" ?
1.03

Any idea what normalized growth was measured for C=C1C(=O)O[C@@H]2C3O[C@]3(C)CC/C=C(\C)CC[C@@H]12 (some centres not stated) ?
0.993

Any idea what normalized growth was measured for C[N+]1(C)C2CC(OC(=O)[C@@H](CO)c3ccccc3)CC1C1OC12 (some centres not stated) ?
0.986

Any idea what normalized growth was measured for "CC(C)NC[C@H](O)COc1cccc2ccccc12" ?
0.969

Any idea what normalized growth was measured for "CCNC(=O)CC[C@H](N)C(=O)O" ?
1.01

====

assay: chemical genetic growth profiling, strain panel (AID 1159580);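 note: tested at 20 µM; growth read once vehicle control cultures reached saturation at 30 °C; 1 = growth at the plate median or of vehicle wells; lower values mean less growth of the strain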; settings: S. cerevisiae deletion strains, growth OD, locus YDL035C, strain GPR1, stronger effect = lower value
Hit rate of the full screen: of about 5,500 compounds, about 2,000 (36%) were called active. Roughly 18% stayed inconclusive and do not appear here. This is one part of the list.
Entries annotated with measured normalized growth
Lab note: write the figure by itself, no unit.

CC(=O)OCC[C@H](C)CCC=C(C)C	1.02
CC(C)[C@@H]1CC[C@@H](C)C[C@H]1O	1.02
CCNC(=O)CC[C@H](N)C(=O)O	1.04
CC1(C)O[C@H]2[C@H](O)C[C@](O)(C(N)=O)C[C@H]2O1	1.05
CC(C)NCC(O)c1cc(O)cc(O)c1 (stereo not given)	1.01

Any idea what normalized growth was measured for "COc1cc(-c2coc3cc(OCc4ccccc4)c(OC)c(O)c3c2=O)cc(OCc2ccccc2)c1OC" ?
1.03

Any idea what normalized growth was measured for "Cc1ccc(C)c(OCCCC(C)(C)C(=O)O)c1" ?
0.845

====

test: chemical genetic growth profiling, strain panel (AID 1159580);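 note: tested at 20 µM; growth read once vehicle control cultures reached saturation at 30 °C; 1 = growth at the plate median or of vehicle wells; lower values mean less growth of the strain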; conditions: S. cerevisiae deletion strains, growth OD, locus YDR150W, strain NUM1, stronger effect = lower value
Among all 5,500 compounds or so, about 2,000 (36%) were called active. About 18% were inconclusive and are not listed. This is one part of the list.
Entries annotated with measured normalized growth

Any idea what normalized growth was measured for C=C1C(C)C2C(Cc3ccccc3)NC(=O)C23OC(=O)/C=C/C(=O)CCCC(C)C/C=C/C3C1O (stereo unspecified) ?
0.985 (inactive)

Any idea what normalized growth was measured for "CCCN1CCC[C@@H](c2cccc(C#N)c2)C1" ?
0.994 (inactive)

Any idea what normalized growth was measured for "O=C1CCC(c2cccs2)=NN1" ?
0.986 (inactive)

Any idea what normalized growth was measured for C=C1C(C)C2C(Cc3ccccc3)NC(=O)C23OC(=O)/C=C/C(O)CCCC(C)C/C=C/C3C1O (stereo unspecified) ?
1.01 (inactive)

Any idea what normalized growth was measured for "CC(=O)c1ccc(-c2cccs2)s1" ?
0.953 (inactive)

Any idea what normalized growth was measured for CC(C)COCC(CN(Cc1ccccc1)c1ccccc1)N1CCCC1 (stereo unspecified) ?
0.965 (inactive)
